B1: VPS39 (parent)
chain: ITEEKVCMVCKKKIGNSAFARYPN

- Variants of: B1
- assay.remarks: protein stability index of a GFP-peptide fusion (GPS, HEK-293T) (PSI 1-6); higher = more stable;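 note: lentivirally expressed fusions sorted by FACS into six bins by GFP to DsRed ratio, PSI derived from sequencing read proportions per bin multiplied by bin number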
- test.conditions: c terminus: a fixed tail appended
Class 1: protein stability index at least 3. Class -1: protein stability index below 3.

Field: example entries. Status: answers known.
1) M8G    -1
2) V9W    -1
3) C10K    -1

[Q] Is reported protein stability index greater than or equal to 3 here: K5E
[A] -1

[Q] Is reported protein stability index greater than or equal to 3 here: M8K
[A] 1

[Q] Is reported protein stability index greater than or equal to 3 here: K11H
[A] -1

Recorded values, source the supplement of paper PMC10567573.
